These measurements were taken from ChEMBL document CHEMBL1201862.

Test system: NCI-H460
testDescription: NCI tumour cell line growth inhibition, 48 h
Activity calls are given as the source filed them. No stated cut-off is given here; in the data, active = GI50 up to about 1.1 µM and inactive = higher.
Items are presented alongside their recorded GI50.

{"compound": "CC(=O)C(=C(c1ccccc1)c1ccccc1)c1ccccc1", "GI50": "> 100 µM (inactive)"}
{"compound": "CC(C)(C)C1CCC(O)(c2ccccc2)CC1 (stereo unspecified)", "GI50": "> 100 µM (inactive)"}
{"compound": "CC1OC(OP(=O)(OCc2ccccc2)OCc2ccccc2)C(OC(=O)c2ccccc2)C(OC(=O)c2ccccc2)C1I (stereo unspecified)", "GI50": "34 µM (inactive)"}
{"compound": "O=C(C=P(c1ccccc1)(c1ccccc1)c1ccccc1)c1cccc(-c2cccc([N+](=O)[O-])c2)c1", "GI50": "2.88 µM (inactive)"}
{"compound": "Cc1cc(C)n2nc3nc(N)c(C#N)c(-c4ccccc4)c3c2n1", "GI50": "> 100 µM (inactive)"}
{"compound": "Sc1nnc(Cc2ccc(Cl)cc2)[nH]1", "GI50": "50.8 µM (inactive)"}
{"compound": "O=C1C(=O)N(c2ccc(Cl)cc2)C(=O)C(=O)C1c1nc2ccccc2o1", "GI50": "> 100 µM (inactive)"}
{"compound": "COC1(OC)C2(Cl)C(Cl)=C(Cl)C1(Cl)C1c3ccc(C(C)=O)c4cccc(c34)C12 (stereo unspecified)", "GI50": "14.5 µM (inactive)"}
{"compound": "N#CCc1cccc(CC#N)c1Br", "GI50": "> 100 µM (inactive)"}
{"compound": "NC(=O)N/N=C/C(=C/Nc1ccccc1)[N+](=O)[O-]", "GI50": "89.1 µM (inactive)"}
{"compound": "COC(=O)N/N=C(\\C)c1sc(-c2nc(C)c(/C(C)=N/NC(=O)OC)s2)nc1C", "GI50": "> 100 µM (inactive)"}
{"compound": "COC12C=CC(CC1)C1C(=O)c3c(C)c(C)n(C)c3C(=O)C12 (stereo unspecified)", "GI50": "> 100 µM (inactive)"}
{"compound": "Cc1cc2cc3c(cc2c(-c2ccc(N)cc2)n1)OCO3", "GI50": "21.3 µM (inactive)"}
{"compound": "CC(=O)O[C@H]1CC[C@@]2(C)C(=CC[C@@H]3[C@@H]2CC[C@]2(C)C(=N/O)/C(=C/c4ccc([N+](=O)[O-])cc4)C[C@@H]32)C1", "GI50": "> 100 µM (inactive)"}
{"compound": "COc1ccc(C(N)=O)c(OC)c1OCc1ccccc1", "GI50": "> 100 µM (inactive)"}
{"compound": "CCn1c2ccccc2n2c(=O)c3c(c(C#N)c12)CCCC3", "GI50": "> 100 µM (inactive)"}
{"compound": "CCOC(=O)C(Sc1ccccc1)c1c(OC)cc(=O)oc1/C=[N+](/[O-])c1ccc(N(C)C)cc1 (stereo unspecified)", "GI50": "27.9 µM (inactive)"}
{"compound": "COC(=O)[C@@H]1C[C@H]([Se]c2ccccc2)CN1S(=O)(=O)c1ccc(C)cc1", "GI50": "> 100 µM (inactive)"}
{"compound": "O=c1c2c(-c3ccccc3)c3ccccc3nc2cnn1-c1ccccc1", "GI50": "> 100 µM (inactive)"}
{"compound": "O=C1CCC2(c3ccccc3)Nc3ncccc3N12 (stereo unspecified)", "GI50": "> 100 µM (inactive)"}
{"compound": "CC(C)=CCC[C@@H](C)C1=C(Nc2ccccc2)C(=O)C(C)=C(O)C1=O", "GI50": "1.63 µM (inactive)"}
